assay_overview: Displacement of [3H]Batrachotoxin from sodium channel site 2 in Wistar rat brain after 60 mins
reported_endpoint: Ki
Could you give the number and then its unit, please?

Sample CCCCOc1cc(C(=O)NCCN(CC)CC)c2ccccc2n1 [DIBUCAINE] ; Ki observed: 550 nM

###

assay_overview: Chemical stability in DMSO after 48 hrs
Type: physicochemical
condition_context: read-out: Stability
reported_endpoint: remaining at 48 h

Sample CCc1ccc(/C=C/C(=O)NC2=NCCS2)cc1 ; remaining at 48 h observed: > 75%

###

assay_overview: Displacement of [3H]Nitrendipine from L-type calcium channel dihydropyridine binding site in Wistar rat cerebral cortex after 90 mins
Type: tissue-based
reported_endpoint: pIC50
pIC50 here is simply -log10 of the concentration when that concentration is written in mol/L.

Sample CCOC(=O)C1=C(C)NC(C)=C(C(=O)OC)C1c1cccc([N+](=O)[O-])c1 (stereo unspecified) ; pIC50 observed: 9.14
